System: UACC-62 melanoma
test_summary: NCI-60 one-dose screen, 48 h (100 = growth as untreated, 0 = no growth, -100 = all killed)
condition: 10 µM unless noted
About 83,000 compounds went through this panel and 20% of them were active in at least one assay; those are over-represented in the sample as a whole.
We begin with a simple list: items and their reported growth.
The figure you give is taken to be in %; do not add the unit.

Worked cases, growth given:
COc1ccc(-n2cc(-c3cc(OC)c(OC)c(OC)c3)n(C(C)=O)c2=O)cc1
84.1
COc1cc2nc(-c3ccc(C(F)(F)F)cc3)cc(OCCN3CCCC3)c2cc1OC
93.3
O=C(Nc1cccc(Cl)c1)Oc1c(Br)c(Br)c(Br)c(Br)c1Br
82.1

INPUT: Name the reported growth value associated with the compound `COc1cccc(-c2nc3occn3c2-c2ccnc(NCCCNS(=O)(=O)c3cccc(F)c3)n2)c1`
OUTPUT: 45.2

INPUT: Name the reported growth value associated with the compound `COc1ccc(-c2c(-c3ccccc3)noc2N)cc1OC`
OUTPUT: 95

INPUT: Name the reported growth value associated with the compound `Cc1c2c(cc[n+]1Cc1ccccc1)c1ccc(OCC3CCCCC3)cc1n2CC1CCCCC1`
OUTPUT: -94

INPUT: Name the reported growth value associated with the compound `COc1cc2c(cc1[N+](=O)[O-])-c1ccc([N+](=O)[O-])cc1/C2=N/NC(N)=S`
OUTPUT: 36.4

INPUT: Name the reported growth value associated with the compound `COc1cc(NCCCN(CC(C)C)C2CCCC2)c2ncccc2c1`
OUTPUT: 73.6

INPUT: Name the reported growth value associated with the compound `O=S(=O)(c1cccc(NC2=Nc3cccc4cccc2c34)c1)N1CCCC1`
OUTPUT: 51.7

INPUT: Name the reported growth value associated with the compound O=C1CCC(NC(=S)Nc2ccccc2)N1 (configuration not stated)
OUTPUT: 99.9

INPUT: Name the reported growth value associated with the compound `COc1ccc(C(=O)c2cc(C)c(OC)c(C)c2)c(OC)c1N(C(=O)C(Cl)Cl)C(=O)C(Cl)Cl`
OUTPUT: 38.8

INPUT: Name the reported growth value associated with the compound `CSc1nc(O)c(-c2ccccc2)c(=O)[nH]1`
OUTPUT: 93.1

INPUT: Name the reported growth value associated with the compound N#CC1=C(N)Oc2c(ccc3ccccc23)C1c1ccc([N+](=O)[O-])cc1 (configuration not stated)
OUTPUT: 65.6

INPUT: Name the reported growth value associated with the compound `CN1CCN(CCCNc2nccc(-c3c(-c4ccc(F)c(O)c4)nc4sccn34)n2)S1(=O)=O`
OUTPUT: 11.5

INPUT: Name the reported growth value associated with the compound `N#Cc1c(Nc2ccccc2)nn2cc(-c3nc4ccccc4s3)c(N)nc12`
OUTPUT: 66.8

INPUT: Name the reported growth value associated with the compound CC(C)NC(=O)N1C(=O)CCC1NNC(=O)c1ccc([N+](=O)[O-])cc1 (configuration not stated)
OUTPUT: 98.1

INPUT: Name the reported growth value associated with the compound `CC(C)CCSc1nc(NNC(N)=O)c(C#N)c(-c2ccccc2)n1`
OUTPUT: 98.1

* * *

Tested on: SK-OV-3 ovarian
test_summary: NCI-60 one-dose screen, 48 h (100 = growth as untreated, 0 = no growth, -100 = all killed)
condition: 10 µM unless noted
About 83,000 compounds went through this panel and 20% of them were active in at least one assay; those are over-represented in the sample as a whole. Activity calls are given as the source filed them. Rule for the calls: active = growth percent below 10; inactive = the rest.
quantity_measured: growth

Worked cases, growth given:
CC[C@H](C)[C@@H]1NC(=O)[C@H](Cc2ccc(O)cc2)N(C)C(=O)[C@H](Cc2ccccc2)NC(=O)CN(C)C(=O)[C@@H]2CCCN2C(=O)[C@@H](Cc2ccccc2)N(C)C(=O)[C@H](CC(C)C)NC1=O
4.76% (active)
CC(=O)Nc1ccc(C(=O)Nc2cc(-c3ccccc3)ccc2N)cc1
67.9% (inactive)

// next entry
INPUT: Lab note: need growth with SK-OV-3 ovarian for entry `Cc1nccc2c3ccc(OCc4cn(-c5ccc(Cl)cc5)nn4)cc3n(CCCc3ccccc3)c12` , please look it up.
OUTPUT: 53.2% (inactive)

* * *

Tested on: MCF7 breast
test_summary: NCI-60 one-dose screen, 48 h (100 = growth as untreated, 0 = no growth, -100 = all killed)
condition: 10 µM unless noted
Experimental: Growth inhibition of the MCF7 human tumor cell line is measured as a screen for anti-cancer activity. Cells are grown in 96 well plates and exposed to the test compound for 48 hours. Compounds are tested at a single concentration, which is 10^-5 M for most compounds. The reported endpoint is percent growth (GI% or GIPRCNT), where numbers from 0 - 100% represent growth inhibition, and numbers from -100% - 0 represent cell death. For example, a value of 40 represents 60% growth inhibition. […]
The panel holds about 83,000 compounds, 20% with a hit somewhere; the sample as a whole holds those more often.
So basically every entry gets a class from its growth, ranges being I (below -30%), II (-30% to below 40%), III (40% or more)

Illustrative cases are given below, each with its answer.
COc1ccc(C2CC(c3cccc(Nc4ccncc4)c3)=NN2c2cc(Cl)cc(Cl)c2)cc1 (stereo unspecified)
I
CCCCCCOc1ccc(C(=N)N(CCCC)CCCC)c2ccccc12
I
CCN(CC)S(=O)(=O)c1cccc([N+](=O)[O-])c1
III

INPUT: Hello team, could you let me know which band the following molecule falls into: `CC[C@H](CC[C@@H](C)[C@H]1CC[C@H]2[C@@H]3CC=C4C[C@@H](OCCc5nn[nH]n5)CC[C@]4(C)[C@H]3CC[C@]12C)C(C)C`
OUTPUT: III

INPUT: Hello team, could you let me know which band the following molecule falls into: CCN1C(=O)/C(=c2\sc3n(c2=O)NC2C(N=3)N(CC)C(=O)N2CC)c2ccccc21 (stereo unspecified)
OUTPUT: II

INPUT: Hello team, could you let me know which band the following molecule falls into: `Cc1cc(NC(=O)c2cnc(N3CCN(CCOCCOCCOCCOCCC(=O)N[C@H](C(=O)N4C[C@H](O)C[C@H]4C(=O)N[C@@H](C)c4ccc(-c5scnc5C)cc4)C(C)(C)C)CC3)cn2)c2ncccc2c1`
OUTPUT: II

INPUT: Hello team, could you let me know which band the following molecule falls into: Fc1ccc(C2CC(c3cccc(Nc4ccncc4)c3)=NN2c2cc(Cl)cc(Cl)c2)cc1 (stereo unspecified)
OUTPUT: II

INPUT: Hello team, could you let me know which band the following molecule falls into: `O=C1Nc2cc(-c3ccncc3)ccc2/C1=C/c1ccc[nH]1`
OUTPUT: II

INPUT: Hello team, could you let me know which band the following molecule falls into: `O=C1Nc2ccccc2/C1=C\c1cccc(/C=C2/C(=O)Nc3ccccc32)n1`
OUTPUT: I

INPUT: Hello team, could you let me know which band the following molecule falls into: `c1ccc(-c2nnc(Nc3ccc4c(c3)OCCO4)o2)c(NCc2ccncc2)c1`
OUTPUT: II

INPUT: Hello team, could you let me know which band the following molecule falls into: `CCCCCCc1nc2nc(Cl)c(Cl)nc2[nH]1`
OUTPUT: III

* * *

Test system: HCC-2998 colon
test_summary: NCI-60 one-dose screen, 48 h (100 = growth as untreated, 0 = no growth, -100 = all killed)
condition: 10 µM unless noted
This is part of a sample that, as a whole, favours compounds with a hit. Of some 83,000 tested, about 20% had one in any assay.
quantity_measured: growth (%)
The figure you give is taken to be in %; do not add the unit.

Worked cases, growth given:
CCOc1cc(CNc2ccc(N3CCOCC3)c(C(=O)O)c2)ccc1OC
99.9
COc1ccc(/C=C2\COc3ccc(-c4ccccc4)cc3C2=O)cc1O
43.1
N#Cc1cc(-c2nc3ccccc3s2)c(=O)n(NS(=O)(=O)c2ccc(Cl)cc2)c1N
111

INPUT: Name the reported growth value associated with the molecule `COc1ccc(Cn2nc(-c3cc(OC)c(OC)c(OC)c3)c3c2CCc2cnoc2-3)cc1OC`
OUTPUT: 70.5

INPUT: Name the reported growth value associated with the molecule `CCNNC(=O)[C@@H]1[C@H](c2cc(OC)c(OC)c(OC)c2)c2cc3c(cc2[C@H](O)[C@H]1CO)OCO3`
OUTPUT: 6.02

INPUT: Name the reported growth value associated with the molecule `CC1(C)CN(Cc2ccccc2)CCN1Cc1ccccc1`
OUTPUT: 106

INPUT: Name the reported growth value associated with the molecule CC1NC(=S)NC(=O)/C1=C/c1cc(=O)oc2c1ccc1ccccc12 (configuration not stated)
OUTPUT: 105

INPUT: Name the reported growth value associated with the molecule `COc1ccc(/C=C/C(=O)c2ccc(OC)c(OC)c2)cc1O`
OUTPUT: 102

INPUT: Name the reported growth value associated with the molecule `BrC(Br)(Br)c1cnc2ccccc2n1`
OUTPUT: 43.8

INPUT: Name the reported growth value associated with the molecule Fc1cc(C2=NNC(c3ccc[nH]3)C2)ccc1-n1ccc(C(F)(F)F)n1 (configuration not stated)
OUTPUT: 104

INPUT: Name the reported growth value associated with the molecule `FC(F)(F)c1cccc(Oc2ccc(Nc3ncnc4ccc(OCCCN5CCOCC5)cc34)cc2Cl)c1`
OUTPUT: 29.3

INPUT: Name the reported growth value associated with the molecule `CNC(=O)c1c(NC(=O)c2ccc(C(C)C)cc2)sc2c(CN(C)C)c(O)ccc12`
OUTPUT: 55.4

Entry source: PubChem BioAssay (NCI)
